TESTED_SYSTEM: K-Ras G13C (Homo sapiens (Human), UniProt P01116+P62937, G13C)
Sequence (P01116-2 other isoform, or with tags, fused parts or gaps G13C, one chain of several): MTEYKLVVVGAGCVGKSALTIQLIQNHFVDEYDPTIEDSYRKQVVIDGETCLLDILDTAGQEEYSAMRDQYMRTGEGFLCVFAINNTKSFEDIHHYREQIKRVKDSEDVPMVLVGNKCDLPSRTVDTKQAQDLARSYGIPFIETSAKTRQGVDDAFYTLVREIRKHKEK
METHOD: Ras-Raf (BRAF RBD) disruption / FRET / MOA assay, KRAS G13C
Format: biochemical
CONDITION_DESCRIPTION: KRAS G13C; Ras-Raf disruption/FRET/MOA assay; read-out: IC50* KRAS G13C FRET data
pIC50: −log10 of the molar value.
PROPERTY_MEASURED: pIC50

Per the record, CCn1c(-c2cccnc2[C@H](C)OC)c2c3cc(ccc31)-c1cccc(c1)C[C@H](NC(=O)[C@H](C(C)C)N(C)C(=O)[C@H]1CCN(C(=O)C#CC3(N(C)C)CCOCC3)C1)C(=O)N1CCC[C@H](N1)C(=O)OCC(C)(C)C2 (atropisomer, axis not shown) has pIC50 of 5.00 to 6.00

So, CO[C@@H](C)c1ncccc1-c1c2c3cc(ccc3n1CC(F)(F)F)-c1cc(F)cc(c1)C[C@H](NC(=O)[C@@H](COC1CN(C(=O)C#CC(C)(C)N(C)C)C1)C(C)C)C(=O)N1CCC[C@H](N1)C(=O)OCC(C)(C)C2 (atropisomer, axis not shown) ? Its pIC50 was 5.00 to 6.00

###

For each record, write down the corresponding IC50.
TESTED_SYSTEM: NRAS G12C (Homo sapiens (Human), UniProt P01111+P62937, G12C)
Sequence (P01111 whole entry G12C, one chain of several): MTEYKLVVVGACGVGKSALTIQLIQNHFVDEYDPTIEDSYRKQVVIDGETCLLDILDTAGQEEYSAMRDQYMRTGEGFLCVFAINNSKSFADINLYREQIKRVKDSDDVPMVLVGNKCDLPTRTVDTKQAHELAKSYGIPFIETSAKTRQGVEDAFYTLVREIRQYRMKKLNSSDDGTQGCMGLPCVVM
METHOD: Ras-Raf (BRAF RBD) disruption / FRET / MOA assay, NRAS G12C
Format: biochemical
CONDITION_DESCRIPTION: read-out: IC50* NRAS G12C FRET data

Please fill in: IC50 reported for C=CC(=O)N1CC[C@H](C(=O)N(C)[C@H](C(=O)N[C@H]2Cc3cc(O)cc(c3)-c3ccc4c(c3)c(c(-c3cc(CN(C)C)cnc3[C@H](C)OC)n4CC)CC(C)(C)COC(=O)[C@@H]3CCCN(N3)C2=O)C(C)C)C1 (atropisomer, axis not shown) [Example A537] = < 0.01 µM

// IC50 lookup, compound = C=CC(=O)N1CC[C@H](C(=O)N(C)[C@H](C(=O)N[C@H]2Cc3cc(cc(C(F)F)c3)-c3ccc4c(c3)c(c(-c3cccnc3[C@H](C)OC)n4CC(F)(F)F)CC(C)(C)COC(=O)[C@@H]3CCCN(N3)C2=O)C(C)C)C1 (atropisomer, axis not shown) , result: 0.1 to 1 µM

###

TESTED_SYSTEM: K-Ras G12C (Homo sapiens (Human), UniProt P01116+P62937, G12C)
Sequence (P01116-2 other isoform, or with tags, fused parts or gaps G12C): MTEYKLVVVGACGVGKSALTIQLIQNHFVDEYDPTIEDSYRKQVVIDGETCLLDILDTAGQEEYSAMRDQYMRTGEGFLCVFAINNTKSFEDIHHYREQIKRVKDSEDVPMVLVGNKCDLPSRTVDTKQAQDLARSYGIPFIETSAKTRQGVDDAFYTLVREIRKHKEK
Sequence (P62937 whole entry): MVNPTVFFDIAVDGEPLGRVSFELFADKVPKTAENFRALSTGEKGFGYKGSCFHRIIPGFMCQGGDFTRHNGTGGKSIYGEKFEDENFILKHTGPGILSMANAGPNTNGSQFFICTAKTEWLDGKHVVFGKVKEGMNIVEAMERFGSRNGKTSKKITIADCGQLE
METHOD: Ras-Raf (BRAF RBD) disruption / FRET / MOA assay, KRAS G12C
Type: biochemical
CONDITION_DESCRIPTION: KRAS G12C; Ras-Raf disruption/FRET/MOA assay; read-out: IC50* KRAS G12C FRET data
pIC50: −log10 of the molar value.
Kindly state pIC50 for each of the entries shown.

Noted for C=CC(=O)N1CC(N(C)C(=O)N(C)[C@H](C(=O)N[C@H]2Cc3nc(cs3)-c3ccc4c(c3)c(c(-c3cccnc3[C@H](C)OC)n4CC)CC(C)(C)COC(=O)[C@@H]3CCCN(N3)C2=O)C(C)C)C1 (atropisomer, axis not shown) : its pIC50 reads 7.00 to 8.00

The molecule listed as C=CC(=O)N1C[C@H](C)N(C(=O)N(C)[C@H](C(=O)N[C@H]2Cc3nc(cs3)-c3ccc4c(c3)c(c(-c3cccnc3[C@H](C)OC)n4CC)CC(C)(C)COC(=O)[C@@H]3CCCN(N3)C2=O)C(C)C)CC12CC2 (atropisomer, axis not shown) has a reported pIC50 of 6.00 to 7.00

For this molecule ( C=CC(=O)N1CCC12CN(C(=O)N(C)[C@H](C(=O)N[C@H]1Cc3nc(cs3)-c3ccc4c(c3)c(c(-c3cccnc3[C@H](C)OC)n4CC)CC(C)(C)COC(=O)[C@@H]3CCCN(N3)C1=O)C(C)C)C2 (atropisomer, axis not shown) ), measured pIC50 is 6.00 to 7.00

In plain terms, CCn1c(-c2cccnc2COC)c2c3cc(ccc31)-c1cc(O)cc(c1)C[C@H](NC(=O)[C@H](C(C)C)N(C)C(=O)[C@H]1CCN(C(=O)C#CC3(N(C)C)CC3)C1)C(=O)N1CCC[C@H](N1)C(=O)OCC(C)(C)C2 has a documented pIC50 of 7.00 to 8.00

Briefly, pIC50 measured for CCn1c(-c2cccnc2[C@H](C)OC)c2c3cc(ccc31)-c1cccc(c1)C[C@H](NC(=O)CCOC1CN(C(=O)C#CC(C)(C)N3CCC3)C1)C(=O)N1CCC[C@H](N1)C(=O)OCC(C)(C)C2 (atropisomer, axis not shown) : 7.00 to 8.00

Entry C=CC(=O)N1CC[C@](F)(C(=O)N(C)[C@H](C(=O)N[C@H]2Cc3cccc(c3)-c3ccc4c(c3)c(c(-c3cccnc3[C@H](C)OC)n4CC)CC(C)(C)COC(=O)[C@@H]3CCCN(N3)C2=O)C(C)C)C1 (atropisomer, axis not shown) , pIC50 reported as 7.00 to 8.00

Value of measured pIC50 for the entry C=CC(=O)N1CC(OC[C@H](C(=O)N[C@H]2Cc3cc(F)cc(c3)-c3ccc4c(c3)c(c(-c3cccnc3[C@H](C)OC)n4CC(F)(F)F)CC(C)(C)COC(=O)[C@@H]3CCCN(N3)C2=O)C(C)C)C1 (atropisomer, axis not shown) : 6.00 to 7.00

get_value(item= C=CC(=O)N1CCN(C(=O)N(C)[C@H](C(=O)N[C@H]2Cc3cc(O)cc(c3)-c3ccc4c(c3)c(c(-c3cccnc3[C@H](C)OC)n4CC)CC(C)(C)COC(=O)[C@@H]3CCCN(N3)C2=O)C(C)C)CC1 (atropisomer, axis not shown) , readout=pIC50) returns 7.00 to 8.00

###

Kindly state IC50 for each of the entries shown.
TESTED_SYSTEM: NRAS Q61K (Homo sapiens (Human), UniProt P01111+P62937, Q61K)
Sequence (P01111 whole entry Q61K): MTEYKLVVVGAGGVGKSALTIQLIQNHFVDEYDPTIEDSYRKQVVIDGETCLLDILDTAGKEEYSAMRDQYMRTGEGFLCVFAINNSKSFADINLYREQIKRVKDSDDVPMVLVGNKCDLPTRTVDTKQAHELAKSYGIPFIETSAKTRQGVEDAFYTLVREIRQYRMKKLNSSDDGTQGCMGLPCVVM
Sequence (P62937 whole entry): as the sequence (P62937 whole entry) above
METHOD: Ras-Raf (BRAF RBD) disruption / FRET / MOA assay, NRAS Q61K
Assay type: biochemical
CONDITION_DESCRIPTION: NRAS Q61K; Ras-Raf disruption/FRET/MOA assay; read-out: IC50* NRAS Q61K FRET data

Quick note, IC50 for C=CC(=O)N(C)CCN1CCN(C(=O)N(C)[C@H](C(=O)N[C@H]2Cc3cccc(c3)-c3ccc4c(c3)c(c(-c3cccnc3[C@H](C)OC)n4CC)CC(C)(C)COC(=O)[C@@H]3CCCN(N3)C2=O)C(C)C)CC1 (atropisomer, axis not shown) landed at 0.1 to 1 µM

Looking up CO[C@@H](C)c1ncccc1-c1c2c3cc(ccc3n1CC(F)(F)F)-c1cccc(c1)CN(NC(=O)[C@@H](COC1CN(C(=O)C#CC(C)(C)N(C)C)C1)C(C)C)C(=O)N1CCC[C@H](N1)C(=O)OCC(C)(C)C2 (atropisomer, axis not shown) , I found its IC50 recorded as 1 to 10 µM

Per the records, this compound ( CO[C@@H](C)c1ncccc1-c1c2c3cc(ccc3n1CC(F)(F)F)-c1nc(co1)C[C@H](NC(=O)[C@@H](COC1CN(C(=O)C#CC(C)(C)N(C)C)C1)C(C)C)C(=O)N1CCC[C@H](N1)C(=O)OCC(C)(C)C2 (atropisomer, axis not shown) ) has IC50 equal to > 10 µM

Given item CCn1c(-c2cccnc2[C@H](C)OC)c2c3cc(ccc31)-c1csc(n1)C[C@H](NC(=O)[C@H](C(C)C)N(C)C(=O)N1CCCOC13CN(C(=O)C#CC(C)(C)N(C)C)C3)C(=O)N1CCC[C@H](N1)C(=O)OCC(C)(C)C2 (atropisomer, axis not shown) , the value recorded as its IC50 is > 10 µM

###

TESTED_SYSTEM: KRAS G12S (Homo sapiens (Human), UniProt P01116+P62937, G12S)
Sequence (P01116-2 other isoform, or with tags, fused parts or gaps G12S, one chain of several): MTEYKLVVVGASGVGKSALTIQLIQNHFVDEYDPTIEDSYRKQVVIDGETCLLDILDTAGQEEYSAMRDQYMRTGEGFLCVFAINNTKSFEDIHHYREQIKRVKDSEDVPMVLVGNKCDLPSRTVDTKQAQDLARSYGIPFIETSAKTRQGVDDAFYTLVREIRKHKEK
METHOD: Ras-Raf (BRAF RBD) disruption / FRET / MOA assay, KRAS G12S
Assay type: biochemical
CONDITION_DESCRIPTION: Ras-Raf disruption/FRET/MOA assay; class symbols; read-out: KRAS G12S FRET data IC50
Please go through the items and note down their IC50.

Reported IC50 ( C=CC(=O)N1CC[C@H](C(=O)N(C)[C@H](C(=O)N[C@H]2Cc3cc(O)cc(c3)-c3ccc4c(c3)c(c(-c3ccccc3CCOC)n4CC)CC(C)(C)COC(=O)[C@@H]3CCCN(N3)C2=O)C2CCOCC2)C1 ) = 1000 to 10000 nM

response.value for CCn1c(-c2cccnc2[C@H](C)OC)c2c3cc(ccc31)-c1cccc(c1)C[C@H](NC(=O)[C@@H](COC1CN(C(=O)C#CC(C)(C)N(C)C(C)C)C1)C(C)C)C(=O)N1CCC[C@H](N1)C(=O)OCC(C)(C)C2 (atropisomer, axis not shown) (field: IC50) = > 10000 nM

Sure, the documented IC50 for C=CC(=O)N1CC[C@H](C(=O)N(C)[C@H](C(=O)N[C@H]2Cc3cc(O)cc(c3)-c3ccc4c(c3)c(c(-c3ccc(CN5CCCC5)cc3)n4CC)CC(C)(C)COC(=O)[C@@H]3CCCN(N3)C2=O)C(C)C)C1 is 1000 to 10000 nM

Notebook: CCn1c(-c2cccnc2[C@H](C)OC)c2c3cc(ccc31)-c1csc(n1)C[C@H](NC(=O)[C@@H](F)COC1CN(C(=O)C#CC(C)(C)N(C)C)C1)C(=O)N1CCC[C@H](N1)C(=O)OCC(C)(C)C2 (atropisomer, axis not shown) , IC50 read as 1000 to 10000 nM

The recorded IC50 for C=CC(=O)N1CC(N(C)C(=O)N(C)[C@H](C(=O)N[C@H]2Cc3nc(cs3)-c3ccc4c(c3)c(c(-c3cccnc3[C@H](C)OC)n4CC)CC(C)(C)COC(=O)[C@@H]3CCCN(N3)C2=O)C(C)C)C1 (atropisomer, axis not shown) is 100 to 1000 nM

// IC50 lookup, compound = CCn1c(-c2cnccc2[C@H](C)OC)c2c3cc(ccc31)-c1cc(O)cc(c1)C[C@H](NC(=O)[C@H](C(C)C)N(C)C(=O)[C@H]1CCN(C(=O)C#CCN(C)C)C1)C(=O)N1CCC[C@H](N1)C(=O)OCC(C)(C)C2 , result: 100 to 1000 nM

Form: compound = CCn1c(-c2cccnc2[C@H](C)OC)c2c3cc(ccc31)-c1cc(O)cc(c1)C[C@H](NC(=O)[C@H](C(C)C)N(C)C(=O)c1ccc(NC(=O)/C=C/CN(C)C)nc1)C(=O)N1CCC[C@H](N1)C(=O)OCC(C)(C)C2 (atropisomer, axis not shown) ; IC50 = 1000 to 10000 nM

// recorded IC50 for C=CC(=O)N1CC(OC[C@H](C(=O)N[C@H]2Cc3cc(O)cc(c3)-c3ccc4c(c3)c(c(-c3cccnc3COC)n4CC)CC(C)(C)COC(=O)[C@@H]3CCCN(N3)C2=O)C(C)C)C1 : > 10000 nM
